// reported IC50 per item
Target: USP1/UAF1 (Homo sapiens (Human), UniProt O94782)
Sequence (O94782 whole entry): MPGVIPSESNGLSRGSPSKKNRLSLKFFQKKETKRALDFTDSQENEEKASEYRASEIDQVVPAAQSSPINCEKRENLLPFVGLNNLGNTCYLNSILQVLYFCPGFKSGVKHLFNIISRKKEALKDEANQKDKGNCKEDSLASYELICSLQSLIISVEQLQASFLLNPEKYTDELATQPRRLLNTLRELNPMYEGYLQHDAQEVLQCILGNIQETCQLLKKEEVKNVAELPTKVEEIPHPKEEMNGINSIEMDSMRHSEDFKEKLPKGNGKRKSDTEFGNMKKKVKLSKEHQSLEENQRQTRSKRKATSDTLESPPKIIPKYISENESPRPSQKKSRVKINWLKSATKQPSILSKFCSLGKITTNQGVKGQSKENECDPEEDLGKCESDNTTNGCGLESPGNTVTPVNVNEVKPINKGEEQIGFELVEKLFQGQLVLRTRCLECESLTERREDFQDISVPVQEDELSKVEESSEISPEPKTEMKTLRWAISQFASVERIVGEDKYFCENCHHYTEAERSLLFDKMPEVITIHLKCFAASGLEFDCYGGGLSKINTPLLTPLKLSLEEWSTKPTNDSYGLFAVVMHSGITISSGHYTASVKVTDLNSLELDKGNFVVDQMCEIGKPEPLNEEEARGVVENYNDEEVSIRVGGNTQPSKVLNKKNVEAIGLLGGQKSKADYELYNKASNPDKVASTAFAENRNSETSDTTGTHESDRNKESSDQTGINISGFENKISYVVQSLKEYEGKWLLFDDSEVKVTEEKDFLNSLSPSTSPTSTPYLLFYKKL
Sequence (Q8TAF3 whole entry partner): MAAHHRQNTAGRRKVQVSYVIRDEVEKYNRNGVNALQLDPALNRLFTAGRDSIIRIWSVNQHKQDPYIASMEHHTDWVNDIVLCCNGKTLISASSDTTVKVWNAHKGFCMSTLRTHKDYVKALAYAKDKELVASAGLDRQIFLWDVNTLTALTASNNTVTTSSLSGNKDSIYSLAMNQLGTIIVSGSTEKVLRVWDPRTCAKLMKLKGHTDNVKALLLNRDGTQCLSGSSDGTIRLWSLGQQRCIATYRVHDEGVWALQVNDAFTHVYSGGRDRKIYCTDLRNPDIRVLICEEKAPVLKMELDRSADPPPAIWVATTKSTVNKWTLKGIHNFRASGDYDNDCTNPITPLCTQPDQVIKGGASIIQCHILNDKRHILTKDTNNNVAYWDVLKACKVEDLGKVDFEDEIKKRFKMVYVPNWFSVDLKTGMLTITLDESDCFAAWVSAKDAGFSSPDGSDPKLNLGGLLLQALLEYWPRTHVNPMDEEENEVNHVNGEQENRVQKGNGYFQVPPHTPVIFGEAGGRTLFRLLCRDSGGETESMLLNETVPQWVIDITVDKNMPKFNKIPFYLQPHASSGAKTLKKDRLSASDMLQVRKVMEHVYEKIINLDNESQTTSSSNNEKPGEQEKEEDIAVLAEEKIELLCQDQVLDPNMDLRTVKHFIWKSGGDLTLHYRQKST
Experiment: Deubiquitination assay for USP1/UAF1 activity (ubiquitin-rhodamine 110)
Assay type: biochemical
Settings: Table 3; 0.05 nM USP1/UAF1, 150 nM ubiquitin-rhodamine

# example entries with known answers
molecule: CCn1cc(C(F)(F)F)nc1-c1ccc(Cn2ncc3cnc(-c4c(OCc5ccccc5)ncnc4C4CC4)nc32)cc1
observedMeasurement: 0.1 to 0.2 µM
--
molecule: Cn1cc(C(F)(F)F)nc1-c1ccc(Cn2ncc3cnc(-c4c(C5CC5)ncnc4N4CCC4)nc32)cc1
observedMeasurement: > 0.2 µM
--
molecule: Cc1ncnc(N(C)C)c1-c1ncc2cnn(Cc3ccc(-n4nc(C(F)(F)F)cc4C)cc3)c2n1
observedMeasurement: > 0.2 µM
--
molecule: CCn1cc(C(F)(F)F)nc1-c1ccc(Cn2ncc3cnc(-c4c(C5CC5)cnn4CC)nc32)cc1 [drawing 771]
observedMeasurement: 0.01 to 0.1 µM
--
molecule: COc1ncnc(C2CC2)c1-c1ncc2cnn(Cc3ccc(-c4nc(C(F)(F)F)cn4C4CN(C)C4)cc3)c2n1 [drawing 775]
observedMeasurement: 0.01 to 0.1 µM

get_value(item= CCn1cc(C(F)(F)F)nc1-c1ccc(Cn2ncc3cnc(-c4c(OC(C)(C)C)ncnc4C4CC4)nc32)cc1 [drawing 740] , readout=IC50) returns 0.01 to 0.1 µM

// recorded IC50 for CCn1cc(C(F)(F)F)nc1-c1ccc([C@@H](C)n2ncc3cnc(-c4c(OC)ncnc4C4CCC4)nc32)cc1 (single isomer, unassigned) [drawing 742] : 0.01 to 0.1 µM

* * *

Test: ADME solubility determination at pH 2.0 and pH 7.4
Format: physicochemical
Details: aqueous buffer, thermodynamic from solid; PBS pH 2.0, shaken at 25° C. for 24 hours, LC-MS/MS; read-out: Solubility at pH 2.0
# solubility at 24 h per entry

Examples with answers:
molecule: COc1ncnc(C2CC2)c1-c1ncc2cnn(Cc3ccc(-c4nc(C(F)(F)F)c(Br)n4C)cc3)c2n1 [Example 163]
observedMeasurement: < 10 µM

molecule: COc1ncnc(C2CC2)c1-c1ncc2cnn(Cc3ccc(-c4nc(C(F)(F)F)c(Br)n4C(C)C)cc3)c2n1 [Example 162]
observedMeasurement: < 10 µM

molecule: COc1ncnc(C2CC2)c1-c1ncc2cnn(Cc3ccc(-n4nc(C(F)(F)F)cc4CO)cc3)c2n1 [Example 198]
observedMeasurement: < 10 µM

molecule: COc1cccc(C)c1-c1ncc2cnn(Cc3ccc(-c4nc(C(F)(F)F)cn4C)cc3)c2n1 [Example 5]
observedMeasurement: > 10 µM

molecule: CC(C)c1ccccc1-c1ncc2cnn(Cc3ccc(-c4nc(C(F)(F)F)cn4C)cc3)c2n1 [Example 1]
observedMeasurement: < 10 µM

molecule: COc1cccc(C2CC2)c1-c1ncc2cnn(Cc3ccc(-c4nc(C(F)(F)F)cn4C)cc3)c2n1 [Example 11]
observedMeasurement: > 10 µM

The recorded solubility at 24 h for entry COc1ncnc(C2CC2)c1-c1ncc2cnn(Cc3ccc(-c4nc(C(F)(F)F)cn4C)cc3)c2n1 [Example 12] equals > 10 µM

Noted for CSc1cccc(C)c1-c1ncc2cnn(Cc3ccc(-c4nc(C(F)(F)F)cn4C)cc3)c2n1 [Example 21] : its solubility at 24 h reads < 10 µM

The molecule identified as CCn1cc(C(F)(F)F)nc1-c1ccc([C@H](C)n2ncc3cnc(-c4c(OC)ncnc4C4CC4)nc32)cc1F [Example 96] registered its solubility at 24 h at < 10 µM

For this molecule ( CC(C)c1ccccc1-c1ncc2cnn(Cc3ccc(-c4nc(C(F)(F)F)cn4C4CN(C)C4)cc3)c2n1 [Example 152] ), measured solubility at 24 h is > 10 µM

Sure, the documented solubility at 24 h for COc1ncnc(C2CC2)c1-c1ncc2cnn(Cc3ccc(-c4nc(C(F)(F)F)oc4C)cc3)c2n1 [Example 127] is < 10 µM

Short answer for Cc1cnn(C(C)C)c1-c1ncc2cnn(Cc3ccc(-n4nc(C(F)(F)F)cc4C)cc3)c2n1 [Example 44] : solubility at 24 h was < 10 µM

Entry COc1ncnc(C2(C)CC2)c1-c1ncc2cnn(Cc3ccc(-n4nc(C(F)(F)F)cc4OC)cc3)c2n1 [Example 106] ; solubility at 24 h = < 10 µM

The measured solubility at 24 h associated with COc1ncnc(C2CC2)c1-c1ncc2cnn([C@@H](C)c3ccc(-c4nc(C(F)(F)F)cn4CCF)cc3)c2n1 [Example 169] reads > 10 µM

Reported solubility at 24 h of [2H]C([2H])([2H])Oc1ncnc(C2CC2)c1-c1ncc2cnn(Cc3ccc(-c4nc(C(F)(F)F)cn4CC)cc3)c2n1 [Example 67] : > 10 µM

The measured values listed here are drawn from patent US11485736B2.
